ASSAY_SYSTEM: Kdn(a2-3)Gal(b1-4)[Fuc(a1-3)]GlcNAc
ASSAY_NOTES: glycan array binding signal (z-score within array); higher = stronger binding
TEST_PARAMETERS: glycan notation: IUPAC condensed, linker removed
This excerpt belongs to a sample that is enriched for the strongest signals.
ENDPOINT_NAME: glycan array binding signal (z-score)
Give a plain numeric answer without units written out.

The examples below pair each entry with its known result.
[[record]]
binder = "Sp8391B-bot-388-20-388 (Bacteroides ovatus) (protein) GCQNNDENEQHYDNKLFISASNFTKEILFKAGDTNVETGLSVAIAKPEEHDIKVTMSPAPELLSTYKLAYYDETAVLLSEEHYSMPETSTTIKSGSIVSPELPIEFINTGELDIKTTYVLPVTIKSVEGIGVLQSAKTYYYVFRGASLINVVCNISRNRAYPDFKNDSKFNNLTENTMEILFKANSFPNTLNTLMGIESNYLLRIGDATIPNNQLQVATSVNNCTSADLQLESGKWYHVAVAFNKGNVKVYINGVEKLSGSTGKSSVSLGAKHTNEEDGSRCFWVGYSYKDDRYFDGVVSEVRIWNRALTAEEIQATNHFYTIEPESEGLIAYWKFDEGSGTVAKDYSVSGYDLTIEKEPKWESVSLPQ"
experimental_result = 1.91

[[record]]
binder = "MVL (Microcystis viridis), Q9RHG4 (protein) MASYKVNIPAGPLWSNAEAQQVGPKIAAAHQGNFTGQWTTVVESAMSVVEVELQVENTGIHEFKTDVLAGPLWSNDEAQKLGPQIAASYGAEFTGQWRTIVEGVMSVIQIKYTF"
experimental_result = -0.121


Consider the additional binder presented here.
[Q] Returns the measured glycan array binding signal (z-score) for the input binder. Input: DCIR1 (Mus musculus), Q9QZ15 (protein) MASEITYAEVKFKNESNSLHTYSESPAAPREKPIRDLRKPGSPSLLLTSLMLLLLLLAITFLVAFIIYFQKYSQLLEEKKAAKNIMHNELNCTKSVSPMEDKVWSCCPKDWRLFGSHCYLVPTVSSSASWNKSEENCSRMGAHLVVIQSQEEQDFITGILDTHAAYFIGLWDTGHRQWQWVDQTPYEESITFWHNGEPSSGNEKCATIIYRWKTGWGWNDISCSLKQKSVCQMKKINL
[A] 2.92
